Experiment: Binding affinity to Mg2+ at 3 x 10^-5 M to 8 x 10^-5 M by UV-Vis spectrophotometric method
Calls of active or inactive are those of the source. The rule behind the calls is not given here.
Hi there, use one of these labels in your reply, thanks! active, inactive

Please state the recorded outcome for this compound: CCOc1cc(/C=C2\SC(=S)N(c3ccccc3)C2=O)cc([N+](=O)[O-])c1O
active

Please state the recorded outcome for this compound: Cc1cc(/C=C2\SC(=N)NC2=O)c(C)n1-c1ccc(Cl)cc1
inactive

Please state the recorded outcome for this compound: Cc1cc(/C=C2\NC(=O)NC2=O)c(C)n1-c1ccc(OCc2ccc(Cl)cc2Cl)cc1
inactive

Please state the recorded outcome for this compound: CCOc1ccc(/C=C2\SC(=O)NC2=O)cc1OCc1ccc(Cl)c(Cl)c1
inactive

Please state the recorded outcome for this compound: COc1cc(N2CCCC2)c(OC)cc1/C=C1/NC(=O)NC1=O
active

Turning now to a further compound:
Please state the recorded outcome for this compound: Cc1cc(/C=C2\SC(N)=NC2=O)c(C)n1-c1ccc(F)cc1
inactive

* * *

Target: Human immunodeficiency virus type 1 reverse transcriptase (Human immunodeficiency virus 1, UniProt Q72547, R557A)
Experiment: Inhibition of HIV1 group M subtype B reverse transcriptase p66 R557A mutant RNase H activity using 18-nucleotide 3'-fluorescein-labeled RNA/5'-[…]-labeled DNA hybrid as substrate after 1 hr by fluorescence assay
Set-up: species or system HIV-1 group M
The following compounds are shown together with reported IC50 values.
Kindly answer with a numeric value in µM, unit omitted.

Example results:
What measured IC50 goes with CCOc1cc(/C=C2\SC(=S)N(c3ccccc3)C2=O)cc([N+](=O)[O-])c1O ?
18.6

What measured IC50 goes with CCOc1ccc(/C=C2\SC(=O)NC2=O)cc1OCc1ccc(Cl)c(Cl)c1 ?
12.5

What measured IC50 goes with CC(C)c1ccc(O)c(=O)c(O)c1 ?
0.21

Next:
What measured IC50 goes with COc1cc(N2CCCC2)c(OC)cc1/C=C1/NC(=O)NC1=O ?
20.5

* * *

The following compounds are shown together with reported IC50 values.
Biological target: Human immunodeficiency virus type 1 reverse transcriptase (Human immunodeficiency virus 1, UniProt Q72547, N474A)
Assay: Inhibition of HIV1 group M subtype B reverse transcriptase p66 N474A mutant RNase H activity using 18-nucleotide 3'-fluorescein-labeled RNA/5'-[…]-labeled DNA hybrid as substrate after 1 hr by fluorescence assay
Kindly answer with a numeric value in µM, unit omitted.

What measured IC50 goes with CCOc1cc(/C=C2\SC(=S)N(c3ccccc3)C2=O)cc([N+](=O)[O-])c1O ?
146

Further cases:
What measured IC50 goes with CC(C)c1ccc(O)c(=O)c(O)c1 ?
0.1

* * *

The following molecules are shown together with reported Ratio IC50 values.
Experiment: Selectivity ratio of IC50 for HIV1 group M subtype B reverse transcriptase p66 R557A mutant RNase H activity to IC50 for HIV1 reverse transcriptase RNase H activity
Output spec: single numeric token, no unit.

What measured Ratio IC50 goes with CCOc1ccc(/C=C2\SC(=O)NC2=O)cc1OCc1ccc(Cl)c(Cl)c1 ?
2.5

What measured Ratio IC50 goes with CC(C)c1ccc(O)c(=O)c(O)c1 ?
1.05

What measured Ratio IC50 goes with COc1cc(N2CCCC2)c(OC)cc1/C=C1/NC(=O)NC1=O ?
2.2

Next:
What measured Ratio IC50 goes with CCOc1cc(/C=C2\SC(=S)N(c3ccccc3)C2=O)cc([N+](=O)[O-])c1O ?
1.5
